Molecular target: human mAChR M1 (Homo sapiens, UniProt P11229)
Sequence (P11229 whole entry): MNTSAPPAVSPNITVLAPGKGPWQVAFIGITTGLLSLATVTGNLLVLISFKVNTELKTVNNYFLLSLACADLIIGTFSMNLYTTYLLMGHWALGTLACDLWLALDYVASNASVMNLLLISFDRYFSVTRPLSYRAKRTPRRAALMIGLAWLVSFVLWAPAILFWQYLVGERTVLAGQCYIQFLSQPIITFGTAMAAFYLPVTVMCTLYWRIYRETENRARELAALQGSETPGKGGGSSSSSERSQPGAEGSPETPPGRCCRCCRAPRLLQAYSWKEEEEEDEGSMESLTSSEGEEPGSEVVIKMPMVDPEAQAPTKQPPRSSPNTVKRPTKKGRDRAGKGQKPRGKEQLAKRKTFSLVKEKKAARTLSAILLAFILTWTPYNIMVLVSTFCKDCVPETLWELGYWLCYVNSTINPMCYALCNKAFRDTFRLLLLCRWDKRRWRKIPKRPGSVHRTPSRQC
Assay: mAChR M1 cell-based functional assay (calcium mobilization), PAM activity: increase in the EC20 acetylcholine response
Details: CHO-K1 cells expressing hM1; calcium flux (Fluo-4); potentiation of EC20 acetylcholine response
assayMetric: Emax (%)

Field: example entries. Status: answers known.
Cc1nc(-c2ccc(Cc3cc(C(=O)N[C@H]4CCCC[C@@H]4O)nc(-n4cccn4)c3)cc2)co1 :: 86
Cc1c(Cc2ccc(-c3cnn(C)c3)nc2)cc(C(=O)N[C@H]2CCC[C@@H]2O)nc1-n1cccn1 :: 75
Cc1nc(-c2ccc(Cc3cc(C(=O)NC4CCOCC4)nc(-n4cccn4)c3)cc2)co1 :: 62
Cc1c(Cc2ccc(-c3ccn(C)n3)cc2)cc(C(=O)NC[C@H]2CCCO2)nc1-c1ccn(C)n1 :: 62

A. Cn1ccc(-c2ccc(Cc3cc(C(=O)N[C@H]4CC[C@@H]4O)nc(-n4cccn4)c3)cc2)n1
B. Cc1c(Cc2ccc(-n3cccn3)cc2)cc(C(=O)N[C@H]2CCCC[C@@H]2O)nc1-c1ccn(C)n1
Q: When the recorded Emax values are compared, which is smaller: that of A or that of B ? Field: selected label. Fill in the label of the entry you choose.
Result: A

A. Cc1nc(-c2ccc(Cc3cc(C(=O)NC4CCOCC4)nc(-n4cccn4)c3C)cc2)co1
B. Cn1ccc(-c2ccc(Cc3cc(C(=O)N[C@H]4CCC[C@@H]4O)nc(-c4ccn(C)n4)c3)cc2)n1
Q: Between A and B , whose measured Emax reads higher? Label of pick, please.
Result: A
(A: 69%, B: 39%)

P. Cn1ccc(-c2ccc(Cc3cc(C(=O)NC4CC5(COC5)C4)nc(-n4cccn4)c3)cc2)n1
Q. Cc1ccc(Cc2cc(C(=O)N[C@H]3CCC[C@@H]3O)nc(-c3ccn(C)n3)c2C)cn1
R. Cc1c(Cc2ccc(-n3cccn3)cc2)cc(C(=O)NC2CC3(COC3)C2)nc1-c1ccn(C)n1
Q: Please list these compounds in decreasing order of Emax. List the labels according to the requested ordering.
Result: R, P, Q
